Reported EC50 values for a set of molecules
studyTarget: human CB2R (Homo sapiens, UniProt P34972)
Sequence (P34972 whole entry): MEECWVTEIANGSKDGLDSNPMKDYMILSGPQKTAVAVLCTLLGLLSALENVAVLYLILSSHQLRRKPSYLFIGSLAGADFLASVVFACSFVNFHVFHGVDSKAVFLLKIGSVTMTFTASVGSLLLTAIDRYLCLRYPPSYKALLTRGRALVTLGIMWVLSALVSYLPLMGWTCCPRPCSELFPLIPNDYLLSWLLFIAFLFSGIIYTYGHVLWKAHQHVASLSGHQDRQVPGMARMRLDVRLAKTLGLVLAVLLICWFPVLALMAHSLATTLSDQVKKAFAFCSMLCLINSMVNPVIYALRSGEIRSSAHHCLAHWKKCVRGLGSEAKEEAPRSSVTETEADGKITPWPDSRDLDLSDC
procedureSummary: CB2R mediated modulation of cAMP synthesis
conditionDescription: CHO cells expressing human CB2R; inhibition of forskolin-stimulated cAMP synthesis (agonist); read-out: CB2 EC50

molecule: CC(C)(C(=O)Nc1ccc(C(F)(F)F)cc1F)S(=O)(=O)N1CCC1
unitAbbreviation: nM
EC50: 86

molecule: CC(C)(C)c1cc(NC(=O)C(C)(C)S(=O)(=O)NC2CCCC2)no1
unitAbbreviation: nM
EC50: 13

molecule: CC(C)(C)c1cc(NC(=O)C(C)(C)S(=O)(=O)N2CCC2)ccn1
unitAbbreviation: nM
EC50: 37

molecule: CC(C)(C)c1cc(NC(=O)C(C)(C)S(=O)(=O)N2CCC(F)C2)sn1 (stereo not shown)
unitAbbreviation: nM
EC50: 83

molecule: CC(C)(C(=O)Nc1nnc(-c2ccccc2)[nH]1)S(=O)(=O)N1CCOCC1
unitAbbreviation: nM
EC50: 86

molecule: CC(C)(C)c1cc(NC(=O)C(C)(C)S(=O)(=O)NC2CC2)no1
unitAbbreviation: nM
EC50: 58

molecule: CC1CCCCN1S(=O)(=O)C(C)(C)C(=O)Nc1cc(C(C)(C)C)on1 (stereo not shown)
unitAbbreviation: nM
EC50: 97

molecule: CN(c1ccccc1)S(=O)(=O)C(C)(C)C(=O)Nc1nc(C(C)(C)C)cs1
unitAbbreviation: nM
EC50: 42

molecule: CCC(C)c1cc(NC(=O)C(C)(C)S(=O)(=O)N2CCC2)on1 (stereo not shown)
unitAbbreviation: nM
EC50: 14

molecule: CCCCN(C)S(=O)(=O)C(C)(C)C(=O)Nc1cc(C(C)(C)C)on1
unitAbbreviation: nM
EC50: 1.7

molecule: CCCNS(=O)(=O)C(C)(C)C(=O)Nc1cc(C(C)(C)C)on1
unitAbbreviation: nM
EC50: 33

molecule: Cc1sc(NC(=O)C(C)(C)S(=O)(=O)N2CCC2)nc1-c1ccc(F)cc1
unitAbbreviation: nM
EC50: 17

molecule: CC(C)(C(=O)Nc1nc(C2CCCCC2)cs1)S(=O)(=O)N1CCC1
unitAbbreviation: nM
EC50: 22

molecule: CC(C)(C)c1cc(NC(=O)C(C)(C)S(=O)(=O)N2CC[C@@H](F)C2)no1
unitAbbreviation: nM
EC50: 5.7

molecule: CC(C)(C)c1cccc(NC(=O)C(C)(C)S(=O)(=O)N2CCC2)c1
unitAbbreviation: nM
EC50: 17

molecule: CC(C)(C(=O)Nc1nsc(-c2ccccc2)n1)S(=O)(=O)N1CCC1
unitAbbreviation: nM
EC50: 72

molecule: CCc1sc(NC(=O)C(C)(C)S(=O)(=O)N2CCC2)nc1-c1ccccc1
unitAbbreviation: nM
EC50: 6.6

molecule: CC(C)(C)c1cc(NC(=O)C(C)(C)S(=O)(=O)N2CCOCC2)on1
unitAbbreviation: nM
EC50: 15

molecule: CC(C)(C)c1cc(NC(=O)C(C)(C)S(=O)(=O)N2CCCCC2)no1
unitAbbreviation: nM
EC50: 6.5

molecule: CC(C)(C(=O)Nc1nc2ccccc2s1)S(=O)(=O)N1CCC1
unitAbbreviation: nM
EC50: 26

molecule: CC(C)(C)c1csc(NC(=O)C(C)(C)S(=O)(=O)N2CCC2)n1
unitAbbreviation: nM
EC50: 14

molecule: CC(C)(C(=O)Nc1nc2c(s1)CCCC2)S(=O)(=O)N1CCC1
unitAbbreviation: nM
EC50: 62

molecule: CC(C)(C)c1cc(NC(=O)C(C)(C)S(=O)(=O)N2CCCC2)no1
unitAbbreviation: nM
EC50: 1.3

molecule: CC(C)(C(=O)Nc1nnc(-c2ccccc2)[nH]1)S(=O)(=O)N1CCC1
unitAbbreviation: nM
EC50: 11

molecule: CC(C)(C(=O)Nc1nc(-c2cccs2)cs1)S(=O)(=O)N1CCC1
unitAbbreviation: nM
EC50: 41

molecule: CC(C)(C(=O)Nc1nnc(-c2ccccc2)[nH]1)S(=O)(=O)N1CCC(F)C1 (stereo not shown)
unitAbbreviation: nM
EC50: 5.1

molecule: Cn1nc(C(C)(C)C)cc1NC(=O)C(C)(C)S(=O)(=O)N1CCOCC1
unitAbbreviation: nM
EC50: 79

molecule: CC(C)(C)c1cc(NC(=O)C(C)(C)S(=O)(=O)N2CCC(F)(F)CC2)no1
unitAbbreviation: nM
EC50: 2.5

molecule: CC(C)c1cc(NC(=O)C(C)(C)S(=O)(=O)N2CCC2)on1
unitAbbreviation: nM
EC50: 108

molecule: CC(C)(C(=O)Nc1nc(-c2ccc(Cl)cc2)cs1)S(=O)(=O)N1CCC1
unitAbbreviation: nM
EC50: 8.9

molecule: CC(C)(C)c1cc(NC(=O)C(C)(C)S(=O)(=O)NC2CCCCC2)no1
unitAbbreviation: nM
EC50: 2.4

molecule: Cc1nc(NC(=O)C(C)(C)S(=O)(=O)N2CCC2)sc1C(C)(C)C
unitAbbreviation: nM
EC50: 2.5

molecule: CC(C)(C)c1ccc(NC(=O)C(C)(C)S(=O)(=O)N2CCC2)cc1
unitAbbreviation: nM
EC50: 3.1

molecule: CCCCNS(=O)(=O)C(C)(C)C(=O)Nc1cc(C(C)(C)C)on1
unitAbbreviation: nM
EC50: 10

molecule: CC(C)(C)c1cc(NC(=O)C(C)(C)S(=O)(=O)N2CCC2)on1
unitAbbreviation: nM
EC50: 20

molecule: CC(C)(C)c1cc(NC(=O)C(C)(C)S(=O)(=O)N2CC(F)(F)C2)no1
unitAbbreviation: nM
EC50: 5

molecule: CC(C)(C)c1cc(NC(=O)C(C)(C)S(=O)(=O)N2CCC2)no1
unitAbbreviation: nM
EC50: 3.6

molecule: CC(C)(C)c1cc(NC(=O)C(C)(C)S(=O)(=O)N2CCOCC2)no1
unitAbbreviation: nM
EC50: 47

molecule: CC(C)(C(=O)Nc1nc(-c2ccc(F)cc2)cs1)S(=O)(=O)N1CCC1
unitAbbreviation: nM
EC50: 19

molecule: CCCCNS(=O)(=O)C(C)(C)C(=O)Nc1nc(C(C)(C)C)cs1
unitAbbreviation: nM
EC50: 32
